Measured values drawn from the supplement of paper PMC10567573 for this set.

B1: STK38L (parent)
chain: NWKETLVFPPEVPISEKAKDLILR

Variants of: B1
Assay: protein stability index of a GFP-peptide fusion (GPS, HEK-293T) (PSI 1-6); higher = more stable;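 also: lentivirally expressed fusions sorted by FACS into six bins by GFP to DsRed ratio, PSI derived from sequencing read proportions per bin multiplied by bin number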
Settings: c terminus: a fixed tail appended
Measured Parameter: protein stability index
Output: the number by itself.

Dear colleague, I am looking for the recorded protein stability index of the following variant: V12T
2.97

Reported protein stability index, variant K17Q : ____
3.05

Any idea what protein stability index was measured for L21T ?
4.44

# protein stability index lookup, item P13N
3.27

// protein stability index lookup, key: A18H
2.54

protein stability index for E16K ?
2.17

Looking for the measured protein stability index of I22F , can you help?
2.79

Recorded protein stability index of V12N , please.
3.26

Data request, read-out protein stability index, for V7G
4.56

What protein stability index value was documented for this variant, T5S ?
2.87

Reported protein stability index, variant E16N : ____
3.3

Tell me the measured protein stability index of E4H , please.
2.82

Any idea what protein stability index was measured for K17T ?
3.7

Quick check: protein stability index of P9N ?
2.78

Quick one: protein stability index of L23C ?
3.36

Which protein stability index is reported for this variant? E16A
2.66

For F8M , what is its reported protein stability index?
3.78

Query (variant): V7W ; field requested: protein stability index
4.68

Give the measured protein stability index of P9T .
2.9

Name the reported protein stability index value associated with the variant K19Y
2.29

Give the measured protein stability index of L6P .
4.16

Item under review: N1Q . Reported protein stability index?
3.09

Sample N1P — what was its protein stability index?
3

Which protein stability index is reported for this variant? I14T
4.42

State the recorded protein stability index for this entry: I14E
3.53

Find the recorded protein stability index belonging to E4K and report it.
2.47

Item E4Y has what recorded protein stability index?
1.32

Item under review: P10I . Reported protein stability index?
2.14

Consider the variant E4C and give its measured protein stability index.
2.16

Param item = E16P ; retrieve measured protein stability index.
3.02

Please look up its protein stability index: W2N
4.14

Which value of protein stability index has been reported for V12Q in the records?
2.89

For the variant D20K , what protein stability index is on record?
2.57

For the variant I14M , what protein stability index is on record?
3.77

Requested field: protein stability index. Item: K17N
3.37

I would be grateful if you could share the reported protein stability index for A18C .
2.72

Item under review: W2D . Reported protein stability index?
3.68

Would you mind telling me what protein stability index value was observed for L21E ?
4.66

Consider the variant shown here: V7A What is its recorded protein stability index?
3.52

Form field: reported protein stability index of E11L
3.58

Find the recorded protein stability index belonging to P10K and report it.
3.03

Looking for the measured protein stability index of R24G , can you help?
3.9

Consider the variant T5E and give its measured protein stability index.
2.36

Would you kindly share the measured protein stability index for D20P ?
2.65

Which protein stability index is listed for L6C ?
3

Looking for the measured protein stability index of L6W , can you help?
2.74

Look up protein stability index: S15M
3.37

Could you tell me which protein stability index is on file for I14N ?
3.38

Which protein stability index is listed for S15Y ?
2.81

Field request: protein stability index | item: K19I
2.01

Consider the variant P13S and give its measured protein stability index.
3.92

Name the recorded protein stability index for P9D .
2.77

Please look up its protein stability index: P9V
2.52

Request the reported protein stability index associated with V7S
2.54

I have this variant here, E16F , and I need its recorded protein stability index.
2.04

Recorded protein stability index for F8L , please?
2.94

Requested field: protein stability index. Item: L21G
3.81

Give the measured protein stability index of K3F .
1.64

GET /values?readout=protein stability index&item= S15P
2.68

Param item = S15A ; retrieve measured protein stability index.
2.84

Could you tell me which protein stability index is on file for P9F ?
2.34

So what's the measured protein stability index for this one? P13M
2.36

Data request, read-out protein stability index, for A18Q
3.57

Look up protein stability index: K19E
3.77

// protein stability index lookup, key: K19A
2.69

Give its protein stability index value. Item: L23T
3.77

Need protein stability index, item P13K
2.46

Quick one: protein stability index for K17F ?
2.93

Quick one: protein stability index for L23P ?
3.9

Can you share its protein stability index? I mean this variant: I22Y
3.51

If you can, please state the reported protein stability index value of L23R .
4.19

Which measured protein stability index value corresponds to E16T ?
2.6

What does the data say about its protein stability index? Entry: P9G
1.93

Sample S15H — what was its protein stability index?
2.68

What does the data say about its protein stability index? Entry: T5Y
2.62

Entry under review: P10M . Reported protein stability index?
2.8

Sample F8K — what was its protein stability index?
4.21

For S15G , what is its reported protein stability index?
2.92

Item under review: P9C . Reported protein stability index?
2.27

I'd like to know its protein stability index. The variant in question is T5I
2.53

Dear colleague, I am looking for the recorded protein stability index of the following variant: W2M
3.54

For the variant shown here, R24N , give the reported protein stability index.
3.96

Fill in the blank: the reported protein stability index of V12M is ____.
3.15

What does the record list as protein stability index for L23Y ?
2.99

Which value of protein stability index has been reported for E4T in the records?
2.57

Look at this variant and give its reported protein stability index. E4N
1.76

protein stability index for P13Y ?
1.97

Dear colleague, I am looking for the recorded protein stability index of the following variant: A18S
3.32

What protein stability index value was documented for this variant, L6K ?
3.53

What value of measured protein stability index is listed for D20C ?
2.06

State the recorded protein stability index for this entry: S15D
4.1
